# measurement.protocol: The drug is tested on Bacteroides cellulosilyticus strain: DSM14838 for biotransformation. The drug concentrations were measured before and after a 12-h incubation by liquid-chromatography-coupled mass spectrometry (LC–MS)
# measurement.parameters: 2 µM

compound: CC[C@H](C)C(=O)O[C@H]1C[C@@H](C)C=C2C=C[C@H](C)[C@H](CC[C@@H]3C[C@@H](O)CC(=O)O3)[C@H]21
Bacterial Biotransformation: Compound metabolized

compound: CCN(CC)C(=O)/C(C#N)=C/c1cc(O)c(O)c([N+](=O)[O-])c1
Bacterial Biotransformation: Compound metabolized

compound: C=CC[C@@H]1/C=C(\C)C[C@H](C)C[C@H](OC)[C@H]2O[C@@](O)(C(=O)C(=O)N3CCCC[C@H]3C(=O)O[C@H](/C(C)=C/[C@@H]3CC[C@@H](O)[C@H](OC)C3)[C@H](C)[C@@H](O)CC1=O)[C@H](C)C[C@@H]2OC.O
Bacterial Biotransformation: Compound metabolized

compound: CCN(CC)CCNC(=O)c1cc(Cl)c(N)cc1OC [METOCLOPRAMIDE]
Bacterial Biotransformation: Compound NOT metabolized

compound: CC(=O)O[C@H]1C(=O)[C@@]2(C)[C@H]([C@H](OC(=O)c3ccccc3)[C@]3(O)C[C@H](OC(=O)[C@H](O)[C@@H](NC(=O)c4ccccc4)c4ccccc4)C(C)=C1C3(C)C)[C@]1(OC(C)=O)CO[C@@H]1C[C@@H]2O
Bacterial Biotransformation: Compound NOT metabolized

compound: CCC(=O)NCC[C@@H]1CCc2ccc3c(c21)CCO3
Bacterial Biotransformation: Compound NOT metabolized

compound: CC(C)NCC(O)COc1ccc(CC(N)=O)cc1 (centres undefined)
Bacterial Biotransformation: Compound NOT metabolized

compound: CC(C)(C)NCC(O)c1cc(Cl)c(N)c(Cl)c1 (centres undefined)
Bacterial Biotransformation: Compound NOT metabolized

compound: Cc1ccc(-c2nc3ccc(C)cn3c2CC(=O)N(C)C)cc1
Bacterial Biotransformation: Compound NOT metabolized

compound: NC(CO)(CO)CO.O=C(c1ccccc1)c1ccc2n1CCC2C(=O)O (centres undefined)
Bacterial Biotransformation: Compound NOT metabolized

compound: CN1CCC(=C2c3ccccc3CCc3cccnc32)CC1.O=C(O)/C=C\C(=O)O.O=C(O)/C=C\C(=O)O [AZATADINE MALEATE]
Bacterial Biotransformation: Compound NOT metabolized

compound: CCN(CC)CCOC(=O)C(Cc1cccc2ccccc12)CC1CCCO1.O=C(O)C(=O)O (centres undefined) [NAFRONYL OXALATE]
Bacterial Biotransformation: Compound NOT metabolized

compound: CN/C(=N/CCSCc1nc[nH]c1C)NC#N
Bacterial Biotransformation: Compound NOT metabolized

compound: CN(C)CCc1c[nH]c2ccc(Cn3cncn3)cc12.O=C(O)c1ccccc1 [RIZATRIPTAN BENZOATE]
Bacterial Biotransformation: Compound NOT metabolized

compound: COc1ccc(/C=C/C(=O)Nc2ccccc2C(=O)O)cc1OC
Bacterial Biotransformation: Compound NOT metabolized

compound: CN(C)CCC=C1c2ccccc2COc2ccccc21 [DOXEPIN]
Bacterial Biotransformation: Compound NOT metabolized

compound: C#C[C@]1(O)CC[C@H]2[C@@H]3CCC4=CC(=O)CC[C@@H]4[C@H]3CC[C@@]21CC
Bacterial Biotransformation: Compound metabolized

compound: COC1=C(OC)C(=O)C(CCCCCCCCCCO)=C(C)C1=O
Bacterial Biotransformation: Compound NOT metabolized

compound: Fc1ccc([C@@H]2CCNC[C@H]2COc2ccc3c(c2)OCO3)cc1
Bacterial Biotransformation: Compound metabolized
